- ASSAYED TARGET: Protein mono-ADP-ribosyltransferase TIPARP (Homo sapiens)
- Sequence (Q7Z3E1 whole entry): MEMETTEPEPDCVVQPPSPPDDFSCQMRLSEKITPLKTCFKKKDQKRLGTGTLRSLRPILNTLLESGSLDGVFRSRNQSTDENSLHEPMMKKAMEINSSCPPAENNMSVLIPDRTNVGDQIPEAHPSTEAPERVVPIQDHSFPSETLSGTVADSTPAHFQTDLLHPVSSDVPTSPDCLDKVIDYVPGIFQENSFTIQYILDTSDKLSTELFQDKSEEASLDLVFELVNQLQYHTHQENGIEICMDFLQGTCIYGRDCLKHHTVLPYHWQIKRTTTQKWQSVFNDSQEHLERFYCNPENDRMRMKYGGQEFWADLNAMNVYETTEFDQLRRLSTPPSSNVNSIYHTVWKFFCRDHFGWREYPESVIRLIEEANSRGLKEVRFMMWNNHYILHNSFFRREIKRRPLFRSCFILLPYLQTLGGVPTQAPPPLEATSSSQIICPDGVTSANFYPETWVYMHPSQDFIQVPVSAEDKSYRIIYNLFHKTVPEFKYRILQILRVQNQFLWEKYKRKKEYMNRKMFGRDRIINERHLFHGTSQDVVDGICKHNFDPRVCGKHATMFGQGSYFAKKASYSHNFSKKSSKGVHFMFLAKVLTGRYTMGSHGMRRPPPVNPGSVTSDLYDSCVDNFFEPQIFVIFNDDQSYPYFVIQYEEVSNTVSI
pIC50: −log10 of the molar value.
ENDPOINT: pIC50

Consider the compound shown here: `O=C(CC[C@@H]1C[C@@H](Oc2ccc(F)cc2F)CN1c1cc(C(F)(F)F)c(=O)[nH]n1)N1CCN(c2ncc(C(F)(F)F)cn2)CC1` What is its recorded pIC50?
7.89

a. O=C(CC[C@@H]1C[C@@H](Oc2cccc(Cl)c2)CN1c1cc(C(F)(F)F)c(=O)[nH]n1)N1CCN(c2ncc(C(F)(F)F)cn2)CC1
b. O=C(CC[C@@H]1C[C@@H](Oc2cncnc2)CN1c1cc(C(F)(F)F)c(=O)[nH]n1)N1CCN(c2ncc(C(F)(F)F)cn2)CC1
When a and b are compared, which has the higher number for pIC50? Reply with the label of the item you choose.
b
(b: 8.52, a: 7.59)
